tested.system: T1, cTnI quality control product recombinant protein (human, UniProt P19429 2-210, limits assumed)
T1 construct: treated as the same molecule; also called cTnI antigen; cardiac troponin I
T1 sequence (P19429 2-210 limits assumed): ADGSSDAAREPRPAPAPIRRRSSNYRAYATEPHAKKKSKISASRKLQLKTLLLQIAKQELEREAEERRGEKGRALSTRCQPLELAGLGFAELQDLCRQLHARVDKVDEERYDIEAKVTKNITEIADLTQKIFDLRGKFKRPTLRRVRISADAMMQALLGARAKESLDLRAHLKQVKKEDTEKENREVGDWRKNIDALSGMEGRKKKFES
assay.details: AMC sensor, antibody immobilised, cTnI in solution
pKd: −log10 of the molar value.
Binary classification by pKd, with 8 as an inclusive lower bound for met; all other cases are not met.

Incoming: Quick check: does Mutation 1-3 (antibody, V domains shown, Built as m8) VH: EVQLQQSGPELVKPGASVKMSCKASGYTFTLYVVHWVKQKPGQGLEWIGYIQPYIDGTKYNEKFKGKATLTVDKSSSTAFMELSSLTSEDSAVYYCARSGYGQYGLAWLAYWGQGTLVTVSA VL: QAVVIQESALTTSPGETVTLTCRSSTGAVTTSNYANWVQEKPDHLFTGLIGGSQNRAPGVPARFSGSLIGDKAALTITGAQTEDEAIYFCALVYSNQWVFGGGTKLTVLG have pKd greater than or equal to 8?
Outgoing: met

Incoming: Quick check: does Anti-cTnI-21C5 monoclonal antibody (recombinant) (antibody, mouse IgG2b, V domains shown, also called WT; Sample 1) VH: EVQLQQSGPELVKPGASVKMSCKASGYSFTLYVVHWVKQKPGQGLEWIGYIQPYLDGTRYNEKFKGKATLTVDKSSSTAFMELSSLTSEDSAVYYCARTGYGGYGLAWLAYWGQGTLVTVSA VL: QAVVIQESALTTSPGETVTLTCRSSSGAATTSQYANWVQEKPDHLFTGLIGGSNNRAPGVPARFSGSLIGDKAALTITGAQTEDEAIYFCAIVYSNHWVFGGGTKLTVLG have pKd greater than or equal to 8?
Outgoing: not met
